biological target: T1, TBD-6 (LC I93A); assay: competition ELISA, peptide vs Fab binding to captured biotin-TROP2
T1 construct: Fab; also called LC I93A mutant
Where no end group is shown, it is not given here.
Parameter: IC50 (nM)
Value expressed in nM; do not type the unit.

In [3]: df
Out[3]:
                                     binder  parameter  numeric_readout
0  VDFCYLYNWPVCSK (cysteine pairing not given here; also: biotinylated, site not given here) [Peptide-37]       IC50             2600
1  VDFCSIYHWPVCYV (cysteine pairing not given here; also: biotinylated, site not given here) [Peptide-38]       IC50              520
2  VDFCALYHWPICYQ (cysteine pairing not given here; also: biotinylated, site not given here) [Peptide-43]       IC50              440
3  VDFCYQYGWPICSR (cysteine pairing not given here; also: biotinylated, site not given here) [Peptide-36]       IC50             3800
4  PDFCYMYNWPVCVT (cysteine pairing not given here; also: biotinylated, site not given here) [Peptide-33]       IC50             2160

### Prompt For the binder VDFCKIYSWPVCHQ (cysteine pairing not given here; also: biotinylated (site not given here)) [Peptide-25] , give its reported IC50.
### Response 1280

### Prompt Report IC50, nothing else, for this binder: IDFCAVYKWPVCQV (cysteine pairing not given here; also: biotinylated, site not given here) [Peptide-62]
### Response 550

### Prompt Identify measured IC50 associated with VDFCGLYHWPICYQVY (cysteine pairing not given here; also: biotinylated, site not given here) [Peptide-41]
### Response 580

### Prompt Identify measured IC50 associated with IDFCMLYNWPICAG (cysteine pairing not given here; also: biotinylated, site not given here) [Peptide-3]
### Response 530
